Target: T1, polypeptide GC3pep (human)
T1 construct: also called membrane proximal polypeptide GC3pep
T1 peptide: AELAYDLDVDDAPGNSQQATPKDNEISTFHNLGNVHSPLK
Assay: ELISA, GC3pep coated, antibody 0.01 nM;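 further: bound antibody detected with an HRP-conjugated secondary antibody and TMB substrate, color reaction stopped with HCl before reading absorbance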
Property Label: OD450 nm (OD450 nm)
Use OD450 nm as the unit, but write only the number.

>>> recorded_result("F1.73.9 (antibody, human IgG1, kappa, V domains shown, human-murine chimeric antibody) VH: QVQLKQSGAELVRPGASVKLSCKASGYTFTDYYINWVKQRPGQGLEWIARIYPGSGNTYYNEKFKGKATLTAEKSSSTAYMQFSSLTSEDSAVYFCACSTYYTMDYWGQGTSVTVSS VL: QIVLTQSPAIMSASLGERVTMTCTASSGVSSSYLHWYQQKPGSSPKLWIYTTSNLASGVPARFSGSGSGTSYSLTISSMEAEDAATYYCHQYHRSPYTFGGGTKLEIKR")
0.05

May I ask what OD450 nm has been recorded for F1.62.9 (antibody, human IgG1, kappa, V domains shown, human-murine chimeric antibody) VH: QVQLQQSDAELVKPGASVKISCKVSGYIFTDHTIHWMKQRPEQGLEWIGYIYPRDGSIKYNENFKGKATLTADKSSSATYMQLNSLTSEDSAVYFCARPIYYDYAYYFDYWGQGTTLTVSS VL: DVVMTQSPLSLPVSLGDQASISCRSRQSLVHSNGNTYLHWYLQKPGQSPKVLIYKVSNRFSGVPDRFSGSGSGTDFTLKISRVEAEDLGVYFCSQSTHVPYTFGGGTKLEIKR ?
0.05

May I ask what OD450 nm has been recorded for F2.55.11 (antibody, human IgG1, kappa, V domains shown, human-murine chimeric antibody) VH: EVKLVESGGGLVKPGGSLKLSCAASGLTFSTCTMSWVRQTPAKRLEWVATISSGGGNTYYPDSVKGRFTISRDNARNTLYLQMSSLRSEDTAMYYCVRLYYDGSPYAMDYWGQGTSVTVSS VL: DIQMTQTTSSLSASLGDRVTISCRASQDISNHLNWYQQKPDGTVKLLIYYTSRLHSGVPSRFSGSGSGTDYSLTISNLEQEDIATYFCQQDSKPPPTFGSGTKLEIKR ?
0.26

May I ask what OD450 nm has been recorded for F1.41.17 (antibody, human IgG1, kappa, V domains shown, human-murine chimeric antibody) VH: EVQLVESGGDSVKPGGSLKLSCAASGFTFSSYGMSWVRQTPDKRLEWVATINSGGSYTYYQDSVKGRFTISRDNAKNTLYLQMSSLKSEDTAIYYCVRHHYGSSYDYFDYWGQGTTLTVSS VL: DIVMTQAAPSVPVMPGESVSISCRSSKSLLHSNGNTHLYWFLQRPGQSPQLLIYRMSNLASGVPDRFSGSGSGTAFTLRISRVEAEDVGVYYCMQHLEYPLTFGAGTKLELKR ?
0.05

May I ask what OD450 nm has been recorded for F1.21.8 (antibody, human IgG1, kappa, V domains shown, human-murine chimeric antibody) VH: EVQLQQSGPELVKPGASVKISCKTSGFLFTGHYMHWVKSSHGNILDWIGYIYPYNAISFYNQKFKGKATLTVDKSSNTAYMELRSLTSEDSAVYYCARGDYGNYVTAYWGQGTLVTVSA VL: DVLMTQTPLSLPVSLGDQASISCRSSQSIVHSSGNTYLEWYLQKPGQSPKLLIYKVSNRFSGVPDRFSGSGSGTDFTLKISRVEAEDLGVYYCFQGSHLPWTFGGGTKLDIKR ?
0.05

May I ask what OD450 nm has been recorded for F4.13.7 (antibody, human IgG1, kappa, V domains shown, human-murine chimeric antibody) VH: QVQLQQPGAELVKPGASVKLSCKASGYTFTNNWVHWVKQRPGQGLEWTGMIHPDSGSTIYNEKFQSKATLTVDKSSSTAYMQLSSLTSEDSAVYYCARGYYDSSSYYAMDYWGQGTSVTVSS VL: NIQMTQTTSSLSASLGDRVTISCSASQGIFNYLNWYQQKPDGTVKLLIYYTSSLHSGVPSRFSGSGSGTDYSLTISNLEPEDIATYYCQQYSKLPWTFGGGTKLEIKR ?
0.04

May I ask what OD450 nm has been recorded for F3.38.7 (antibody, human IgG1, kappa, V domains shown, human-murine chimeric antibody) VH: QVQLQQSGAELVRPGASVKLSCKASGYTFTDYEIHWVKQTPVLGLEWIGAIDPKTGNTAYNQKFMGKATLTADKSSTTAYMDLRSLTSEDSAVYYCTRYFSFAYWGQGTLVTVSA VL: DVLMTQTPLSLPVSLGDQASISCRSSQTFVHSNGNTYLQWYLQKPGQSPKLLIYKVSNRFSGVPDRFSGSGSGTDFTLKISRVEAEDLGVYYCFQGSHVPYTFGSGTKLEIKR ?
0.19

May I ask what OD450 nm has been recorded for F4.26.1 (antibody, human IgG1, kappa, V domains shown, human-murine chimeric antibody) VH: QVQLKQSGPGLVQPSQSLSITCTVSGFSLTSYGVHWVRQSPGKGLEWLGVIWSSGNTDYNAVLISRLSIKKDDSKSQVFFKMNSPQVDDSAIYYCGRNGGWLLRGFMDFWGQGTSVTVSS VL: DVVMTQTPLSLPVSLGDQASISCRSSQSLLHSNGNTYLHWYLQRSGQSPNLLIYKVSNRFSGVPDRFSGGGSGTDFTLKISRVEAEDLGIYFCSQSTHVPWTFGGGTKLEIKR ?
0.16

May I ask what OD450 nm has been recorded for F1.57.21 (antibody, human IgG1, kappa, V domains shown, human-murine chimeric antibody) VH: QVQLQQSGAELARPGASVKLSCKASGYTFTSYGISWVKQITGQGLEWIGEIYPRSESTYYNEKFKGKATLTADKSSSTAYMELRSLTSEDSAVYFCARDYGNIYSFAYWGQGTLVTVSA VL: DIQMTQSPASLSASVGETVTITCRTSENIYSYLAWYQQKQGKSPQLLVYNAKTLAEGVPSRFSGSGSGTQFSLKINSLQPEDFGSYYCQHHYGTPLTFGAGTKLELKR ?
0.05

May I ask what OD450 nm has been recorded for F3.54.12 (antibody, human IgG1, kappa, V domains shown, human-murine chimeric antibody) VH: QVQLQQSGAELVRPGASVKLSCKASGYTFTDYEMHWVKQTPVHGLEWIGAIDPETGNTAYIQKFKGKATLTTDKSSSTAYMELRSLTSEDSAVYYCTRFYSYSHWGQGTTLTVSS VL: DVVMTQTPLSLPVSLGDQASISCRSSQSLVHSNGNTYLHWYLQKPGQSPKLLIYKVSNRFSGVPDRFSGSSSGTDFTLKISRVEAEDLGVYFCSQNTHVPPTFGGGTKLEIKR ?
0.33
